Tested on: 439559-082-T-J2-PDC spheroids viability;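 note: spheroids exposed to the agents for 7 days before readout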
Experiment: Anticancer human tumor 439559-082-T-J2-PDC patient-derived colon adenocarcinoma cell line growth inhibition [GQUAD]
Conditions: second compound 0.1 µM; first compound 3.16 µM; active compounds read low
From the text: DNA G-quadruplex Stabilizer Agents in Combinations in Complex Spheroids A high-throughput screen of multi-cell type tumor spheroids was designed to identify active combinations of DNA G-quadruplex stabilizer agents and targeted small molecules. […] Compounds. […] If the clinical Cmax for an agent had not been determined, the highest concentration tested was 10 microM. […]
# binning rule on viability, T/C: low end: < 40%; middle: ≥ 40% and < 70%; high end: ≥ 70%

[
  {
    "Molecule": "C#Cc1c(F)ccc2cc(O)cc(-c3ncc4c(N5CC6CCC(C5)N6)nc(OCC56CCCN5CC(F)C6)nc4c3F)c12 (centres undefined) + Cc1cnc(CNC(=O)c2c(=O)c3ccc(N4CCCN(C)CC4)nc3n3c2sc2ccccc23)cn1",
    "Discrete label": "middle"
  },
  {
    "Molecule": "CC1COCCN1c1cc(C2(S(C)(=N)=O)CC2)nc(-c2ccnc3[nH]ccc23)n1 (centres undefined) + Cc1cnc(CNC(=O)c2c(=O)c3ccc(N4CCCN(C)CC4)nc3n3c2sc2ccccc23)cn1",
    "Discrete label": "high end"
  },
  {
    "Molecule": "O=C(NO)c1cnc(N2CCN(S(=O)(=O)c3ccc4ccccc4c3)CC2)nc1 + CN(C)c1ccc(Nc2c3ccc(NC(=O)CCN4CCCC4)cc3nc3cc(NC(=O)CCN4CCCC4)ccc23)cc1",
    "Discrete label": "low end"
  },
  {
    "Molecule": "Nc1ccn(C2OC(CO)C(O)C2(F)F)c(=O)n1 (centres undefined) + Cc1cnc(CNC(=O)c2c(=O)c3ccc(N4CCCN(C)CC4)nc3n3c2sc2ccccc23)cn1",
    "Discrete label": "low end"
  },
  {
    "Molecule": "CCCS(=O)(=O)Nc1ccc(F)c(C(=O)c2c[nH]c3ncc(-c4ccc(Cl)cc4)cc23)c1F + Cc1cnc(CNC(=O)c2c(=O)c3ccc(N4CCCN(C)CC4)nc3n3c2sc2ccccc23)cn1",
    "Discrete label": "high end"
  },
  {
    "Molecule": "O=C(NO)c1cnc(N2CCN(S(=O)(=O)c3ccc4ccccc4c3)CC2)nc1 + Cc1[nH]c2ccc(F)cc2c1-c1nc2c3cccnc3c3ncccc3c2[nH]1",
    "Discrete label": "low end"
  },
  {
    "Molecule": "CCCS(=O)(=O)Nc1ccc(F)c(C(=O)c2c[nH]c3ncc(-c4ccc(Cl)cc4)cc23)c1F + CN(C)c1ccc(Nc2c3ccc(NC(=O)CCN4CCCC4)cc3nc3cc(NC(=O)CCN4CCCC4)ccc23)cc1",
    "Discrete label": "high end"
  },
  {
    "Molecule": "COc1cc(C2c3cc4c(cc3C(OC3OC5COC(C)OC5C(O)C3O)C3COC(=O)C23)OCO4)cc(OC)c1O (centres undefined) + Cc1[nH]c2ccc(F)cc2c1-c1nc2c3cccnc3c3ncccc3c2[nH]1",
    "Discrete label": "high end"
  },
  {
    "Molecule": "C=CCn1c(=O)c2cnc(Nc3ccc(N4CCN(C)CC4)cc3)nc2n1-c1cccc(C(C)(C)O)n1 + Cc1cnc(CNC(=O)c2c(=O)c3ccc(N4CCCN(C)CC4)nc3n3c2sc2ccccc23)cn1",
    "Discrete label": "middle"
  },
  {
    "Molecule": "CC(=O)O[C@H]1C(=O)[C@@]2(C)[C@H]([C@H](OC(=O)c3ccccc3)[C@]3(O)C[C@H](OC(=O)[C@H](O)[C@@H](NC(=O)c4ccccc4)c4ccccc4)C(C)=C1C3(C)C)[C@]1(OC(C)=O)CO[C@@H]1C[C@@H]2O + Cc1[nH]c2ccc(F)cc2c1-c1nc2c3cccnc3c3ncccc3c2[nH]1",
    "Discrete label": "low end"
  }
]
